Source: BindingDB's records for doi:10.1016/j.bmcl.2012.07.104

Data export: IC50 values recorded with Cathepsin B-like cysteine protease (Trypanosoma brucei, UniProt Q6R7Z5).
Sequence (Q6R7Z5 whole entry): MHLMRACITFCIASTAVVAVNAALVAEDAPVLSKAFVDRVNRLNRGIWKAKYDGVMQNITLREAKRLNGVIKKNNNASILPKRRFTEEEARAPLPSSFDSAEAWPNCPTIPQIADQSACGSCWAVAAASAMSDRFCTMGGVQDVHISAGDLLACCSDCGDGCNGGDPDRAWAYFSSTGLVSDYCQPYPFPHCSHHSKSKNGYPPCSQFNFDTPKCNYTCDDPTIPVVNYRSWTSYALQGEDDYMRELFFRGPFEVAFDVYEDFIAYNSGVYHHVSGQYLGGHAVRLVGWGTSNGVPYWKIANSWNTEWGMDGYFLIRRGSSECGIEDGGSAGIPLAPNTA
readout: IC50 (µM)

I have this compound here, Cn1c2c3ccccc3nc-2c(Nc2cccnc2)c2ccccc21 , and I need its recorded IC50.
59

I have this compound here, CC(C)CN1CCC(Nc2c3nc4ccccc4c-3n(C)c3ccccc23)CC1 , and I need its recorded IC50.
26

[P] Cn1c2c3ccccc3nc-2c(NC2CCN(Cc3ccccc3O)CC2)c2ccccc21
[Q] CC(C)NCCCNc1c2nc3ccccc3c-2n(C)c2ccccc12
Which of the two gives a bigger number for IC50: P or Q ? Choose, then provide that item's label.
Q
(Q: 62 µM, P: 26 µM)
